Numbers sourced from patent US8957093B2.

Molecular target: GST-PPARG-LBD (Homo sapiens (Human), UniProt P37231)
Sequence (P37231 238-503): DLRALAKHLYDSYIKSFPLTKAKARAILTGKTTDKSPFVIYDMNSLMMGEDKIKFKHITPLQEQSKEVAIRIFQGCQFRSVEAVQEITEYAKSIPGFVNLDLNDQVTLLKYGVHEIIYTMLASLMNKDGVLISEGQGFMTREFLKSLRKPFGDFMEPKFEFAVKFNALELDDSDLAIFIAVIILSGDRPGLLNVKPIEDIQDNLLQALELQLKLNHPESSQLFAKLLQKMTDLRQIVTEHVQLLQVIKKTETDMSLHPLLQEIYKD
Test: Lanthascreen PPARG competitive binding assay (Invitrogen, TR-FRET)
Details: Lanthascreen competitive binding; NA = not active; inc = incomplete curve; read-out: IC50 (nM) Lantha
A collection of compounds and their measured IC50

# Compound, Value operator, IC50 / nM
records = [
    ("Cc1c(C)n(Cc2ccc(-c3ccccc3C(=O)O)cc2)c2ccc(C(=O)N[C@H](C)C3COc4ccccc4O3)cc12 (stereo partly drawn) [Example 213]", "=", 3),
    ("C[C@H](NC(=O)c1ccc2c(ccn2Cc2ccc(-c3ccccc3)cc2)c1)c1ccc([N+](=O)[O-])cc1 [Example 38]", ">", 1000),
    ("COC(=O)c1ccc(CNC(=O)c2ccc3c(c2)c(C)c(C)n3Cc2ccc(-c3ccccc3C(=O)O)cc2)cc1 [compound 16]", "=", 2),
    ("Cc1c(C)n(Cc2ccc(-c3ccccc3C(=O)O)cc2)c2ccc(C(=O)N[C@@H](C)c3cc(Cl)ccn3)cc12 [Example 265]", "=", 4),
    ("C[C@H](NC(=O)c1ccc2c(ccn2Cc2ccc(-c3cccc(CN)c3)cc2)c1)c1ccc([N+](=O)[O-])cc1 [Example 53]", ">", 1000),
    ("Cc1c(C)n(Cc2ccc(-c3ccccc3C(=O)O)cc2)c2ccc(C(=O)N[C@@H](C)c3ccc(C(F)(F)F)nc3)cc12 [Example 217]", "=", 230),
    ("Cc1c(C)n(Cc2ccc(-c3ccccc3C(=O)O)cc2)c2ccc(C(=O)N[C@H](C)c3ccncc3)cc12 [Example 169]", "=", 11),
    ("Cc1c(C)n(Cc2ccc(-c3ccccc3C(=O)O)cc2)c2ccc(C(=O)N[C@@H](C)c3ccnc(Br)c3)cc12 [Example 267]", "=", 98),
    ("Cc1c(C)n(Cc2ccc(-c3ccccc3C(=O)O)cc2)c2ccc(C(=O)N[C@@H](C)c3cccc(Cl)c3F)cc12 [Example 232]", "=", 18),
    ("Cc1c(C)n(Cc2ccc(-c3ccccc3C(=O)O)cc2)c2ccc(C(=O)N[C@@H](C)c3ccc(S(C)(=O)=O)cc3)cc12 [Example 258]", "=", 636),
    ("Cc1c(C)n(Cc2ccc(-c3ccccc3C(=O)O)cc2)c2ccc(C(=O)N[C@@H](C)c3ccc(Br)cn3)cc12 [Example 260]", "=", 2),
    ("Cc1c(C)n(Cc2ccc(-c3ccccc3C(=O)O)cc2)c2ccc(C(=O)N[C@@H](C)c3cc(F)ccc3C(F)(F)F)cc12 [Example 241]", "=", 57),
    ("Cc1c(C)n(Cc2ccc(-c3ccccc3C(=O)O)cc2)c2ccc(C(=O)N[C@@H](C)c3ccccc3OC(F)(F)F)cc12 [Example 256]", "=", 38),
    ("Cc1c(C)n(Cc2ccc(-c3ccccc3C(=O)O)cc2)c2ccc(C(=O)NCC(=O)c3ccccc3)cc12 [compound 31]", "=", 244),
    ("Cc1c(C)n(Cc2ccc(-c3ccccc3C(=O)O)cc2)c2ccc(C(=O)N[C@H](C)c3c(F)cncc3F)cc12 [Example 215]", "=", 309),
    ("COc1ccc(CNC(=O)c2ccc3c(c2)c(C)c(C)n3Cc2ccc(-c3ccccc3C(=O)O)cc2)cc1F [Example 111]", "=", 13),
    ("CCC(NC(=O)c1ccc2c(ccn2Cc2ccc(-c3ccccc3C(=O)O)cc2)c1)c1ccccc1 (stereo not drawn) [Example 131]", "=", 6),
    ("Cc1c(C)n(Cc2ccc(-c3ccccc3C(=O)O)cc2)c2ccc(C(=O)N[C@@H](C)C3CCCCC3)cc12 [Example 212]", "=", 4),
    ("Cc1c(C)n(Cc2ccc(-c3ccccc3C(=O)O)cc2)c2ccc(C(=O)N[C@@H](C)c3c(F)cncc3F)cc12 [Example 216]", "=", 33),
    ("Cc1c(C)n(Cc2ccc(-c3ccccc3S(=O)(=O)NC(C)(C)C)cc2)c2ccc(C(=O)N[C@@H](C)c3cccc(C(C)C)c3)cc12 [Example 246]", ">", 1000),
    ("Cc1c(C)n(Cc2ccc(-c3ccccc3C(=O)O)cc2)c2ccc(C(=O)N[C@@H](C)[C@@H]3CCN(C(=O)OCc4ccccc4)C3)cc12 [Example 240]", "=", 58),
    ("Cc1c(C)n(Cc2ccc(-c3ccccc3C(=O)O)cc2)c2ccc(C(=O)N[C@@H](C)c3cccc(F)c3F)cc12 [Example 229]", "=", 9),
    ("Cc1c(C)n(Cc2ccc(-c3ccccc3C(=O)O)cc2)c2ccc(C(=O)NCc3ccc(I)cc3)cc12 [compound 7]", "=", 4),
    ("C[C@H](NC(=O)c1ccc2c(ccn2Cc2ccc(-c3cccc(Cl)c3)cc2)c1)c1ccc([N+](=O)[O-])cc1 [Example 58]", ">", 1000),
    ("Cc1c(C)n(Cc2ccc(-c3ccccc3C(=O)O)cc2)c2ccc(C(=O)NC(C)(C)c3ccc(Br)cc3)cc12 [Example 180]", "=", 1),
    ("Cc1c(C)n(Cc2ccc(-c3ccccc3C(=O)O)cc2)c2ccc(C(=O)N[C@@H](C)c3ccc(C4CC4)nc3)cc12 [Example 263]", "=", 59),
    ("Cc1c(C)n(Cc2ccc(-c3ccccc3-c3nnn[nH]3)cc2)c2ccc(C(=O)N[C@@H](C)c3cccc(C4CC4)c3)cc12 [Example 188]", "=", 10),
]
